Sourced from patent US20230295298A1

Please go through the items and note down their OD Value of rH-GPA33 Binding ELISA.
Target: T1, human recombinant A33 antigen (human, UniProt Q99795 22-235)
T1 construct: also called rH-GPA33; rHGPA33
T1 sequence: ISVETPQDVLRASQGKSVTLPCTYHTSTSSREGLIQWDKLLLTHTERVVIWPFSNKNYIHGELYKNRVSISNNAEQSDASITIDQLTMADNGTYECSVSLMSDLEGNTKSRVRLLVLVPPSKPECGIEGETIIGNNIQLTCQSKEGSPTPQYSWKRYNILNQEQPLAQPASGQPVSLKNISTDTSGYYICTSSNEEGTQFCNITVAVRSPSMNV
Assay: rH-GPA33 binding ELISA, 2ug/mL of 31.1, supernatant
Enter your answer as a number in OD; do not include the unit.

[in] Look up OD Value of rH-GPA33 Binding ELISA for this binder: humanized 31.1 antibody #15 (ven-HC + sdr-LC) (antibody, human IgG1, kappa, V domains shown, Full heavy and light chains; transient Expi293 expression, tested as culture supernatant; also called Sample ID 15; ven31.1-HC + sdr31.1-LC) VH: QIQLVQSGPEVKKPGASVKISCKASGYTFTNYGMNWVKQAPGQGLKWMGWINTYTGEPTYADDFKGRFAFTLDTSISTAYLEISRLRSDDTAVYFCARAYYGKYFDYWGQGTTLTVSS VL: SIQMTQSPSSLSASVGDRVTITCRASQSISNDLAWYQQKPGQSPKLLIYYASNRYTGVPDRFSGSGYGTDFTLTISSLQPEDFAVYFCQQDYSSPLTFGAGTKLEIKR
[out] 0.46

[in] Look up OD Value of rH-GPA33 Binding ELISA for this binder: humanized 31.1 antibody #11 (sdr31.1-HC + sdr31.1-LC) (antibody, human IgG1, kappa, V domains shown, Full heavy and light chains; supernatant in the first screen, Protein A/G purified in the third round; used as negative control; also called Sample ID 11; sdr-HC + sdr-LC) VH: QIQLVQSGAEVKKPGASVKVSCKASGYTFTNYGMNWVRQAPGKGLEWMGWINPYTGEPTYAQKFQGRVTFTLDTSISTAYMELSRLRSDDTAVYFCARAYYGKYFDYWGQGTTVTVSS VL: SIQMTQSPSSLSASVGDRVTITCRASQSISNDLAWYQQKPGQSPKLLIYYASNRYTGVPDRFSGSGYGTDFTLTISSLQPEDFAVYFCQQDYSSPLTFGAGTKLEIKR
[out] 0.06

[in] Look up OD Value of rH-GPA33 Binding ELISA for this binder: humanized 31.1 antibody #10 (sdr-HC + abb-LC) (antibody, human IgG1, kappa, V domains shown, Full heavy and light chains; transient Expi293 expression, tested as culture supernatant; also called Sample ID 10; sdr31.1-HC + abb31.1-LC) VH: QIQLVQSGAEVKKPGASVKVSCKASGYTFTNYGMNWVRQAPGKGLEWMGWINPYTGEPTYAQKFQGRVTFTLDTSISTAYMELSRLRSDDTAVYFCARAYYGKYFDYWGQGTTVTVSS VL: SIQMTQSPSSLSASVGDRVTITCRASQSVSNDVAWYQQKPGQSPKLLIYYASNRYSGVPDRFSGSGYGTDFTLTISSLQPEDFAVYFCQQDYSSPLTFGAGTKLEIKR
[out] 0.07

[in] Look up OD Value of rH-GPA33 Binding ELISA for this binder: humanized 31.1 antibody #6 (abb31.1-HC + abb31.1-LC) (antibody, human IgG1, kappa, V domains shown, Full heavy and light chains; supernatant in the first screen, Protein A/G purified in the second round; also called Sample ID 6; abb-HC + abb-LC) VH: QIQLVQSGAEVKKPGASVKVSCKASGYTFTNYGMNWVRQAPGKGLEWMGWINTYTGEPTYAQKFQGRVTFTLDTSISTAYMELSRLRSDDTAVYFCARAYYGKYFDYWGQGTTVTVSS VL: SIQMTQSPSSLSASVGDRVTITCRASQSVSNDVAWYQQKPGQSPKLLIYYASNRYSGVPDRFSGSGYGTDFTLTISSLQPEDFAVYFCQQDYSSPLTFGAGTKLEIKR
[out] 0.74
